Test system: 874868-142-R-J2-PDC complex spheroids, growth % test/control;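 note: spheroids exposed to the compounds for 7 days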
Assay: Anticancer human tumor 874868-142-R-J2-PDC patient-derived head and neck squamous carcinoma cell line growth inhibition [CLK]
Settings: second compound 0.316 µM; first compound 1 µM; active compounds read low
Excerpt: A high-throughput screen of multi-cell type tumor spheroids was designed to identify active combinations of […] and targeted small molecules. Complex spheroids include a stromal component modeled by human endothelial cells (HUVEC) and fibroblasts modeled by human mesenchymal stem cells (MSCs). […] Compounds. […] If the clinical Cmax for an agent had not been determined, the highest concentration tested was 10 microM. […]
Threshold 9%: viability, T/C strictly smaller gives Yes, otherwise No.

As a guide, the following entries are already answered.
Nc1ccccc1NC(=O)c1ccc(CNC(=O)OCc2cccnc2)cc1 + CNC(=O)c1ccc(Nc2nc(OC3CCCC3)c3c(-c4ccc5nc(C)oc5c4)c[nH]c3n2)c(OC)c1	No
COc1c(OCCCN2CCOCC2)ccc2c3n(c(=NC(=O)c4cnc(N)nc4)nc12)CCN3 + CN1CCN(c2cc(C(=O)Nc3cc4cc(-c5cnn(C)c5)ccc4cn3)ccn2)CC1	Yes
CC(Nc1ccc2c(c1)OCCn1cc(N3C(=O)OCC3C(F)F)nc1-2)C(N)=O (stereo not given) + CN1CCN(c2cc(C(=O)Nc3cc4cc(-c5cnn(C)c5)ccc4cn3)ccn2)CC1	Yes
COc1cccc2c1C(=O)c1c(O)c3c(c(O)c1C2=O)CC(O)(C(=O)CO)CC3OC1CC(N)C(O)C(C)O1 (stereo not given) + CN1CCN(c2cc(C(=O)Nc3cc4cc(-c5cnn(C)c5)ccc4cn3)ccn2)CC1	Yes

API: the following record is the query input.
Bench note: check whether C=CC(=O)N1CCN(c2nc(=O)n(-c3c(C)ccnc3C(C)C)c3nc(-c4c(O)cccc4F)c(F)cc23)C(C)C1 (stereo not given) + CNC(=O)c1ccc(Nc2nc(OC3CCCC3)c3c(-c4ccc5nc(C)oc5c4)c[nH]c3n2)c(OC)c1 shows viability, T/C below 9% No
